- system-name: human TLR9 (Homo sapiens (Human))
- assay-info: TLR9 inhibition reporter assay (HEK-Blue, SEAP)
- condition-parameters: HEK-Blue cells overexpressing human TLR9, ODN2006 5 nM stimulation
pIC50: −log10 of the molar value.
measure: pIC50

compound: Cc1cc(-c2[nH]c3ccc(-c4nnc([C@@H](N)C5CC5)o4)cc3c2C(C)C)ccn1 [Example 268]
pIC50: 4.47

(I) CC(C)c1c(-c2ccnc3[nH]ncc23)[nH]c2ccc(-c3nnc(C4CCCN(C)C4)o3)cc12 (stereo not drawn) [Example 168]
(II) CNCc1nnc(-c2ccc3[nH]c(-c4ccnc5n[nH]cc45)c(C(C)C)c3c2)o1 [Example 132]
Hi there, can you help? I need to know whether I or II has lower measured pIC50. // output: label of the selected item II
(II: 4.32, I: 5.97)

----------
- system-name: human TLR9 (Homo sapiens (Human), UniProt Q9NR96)
- Sequence (Q9NR96 26-1032): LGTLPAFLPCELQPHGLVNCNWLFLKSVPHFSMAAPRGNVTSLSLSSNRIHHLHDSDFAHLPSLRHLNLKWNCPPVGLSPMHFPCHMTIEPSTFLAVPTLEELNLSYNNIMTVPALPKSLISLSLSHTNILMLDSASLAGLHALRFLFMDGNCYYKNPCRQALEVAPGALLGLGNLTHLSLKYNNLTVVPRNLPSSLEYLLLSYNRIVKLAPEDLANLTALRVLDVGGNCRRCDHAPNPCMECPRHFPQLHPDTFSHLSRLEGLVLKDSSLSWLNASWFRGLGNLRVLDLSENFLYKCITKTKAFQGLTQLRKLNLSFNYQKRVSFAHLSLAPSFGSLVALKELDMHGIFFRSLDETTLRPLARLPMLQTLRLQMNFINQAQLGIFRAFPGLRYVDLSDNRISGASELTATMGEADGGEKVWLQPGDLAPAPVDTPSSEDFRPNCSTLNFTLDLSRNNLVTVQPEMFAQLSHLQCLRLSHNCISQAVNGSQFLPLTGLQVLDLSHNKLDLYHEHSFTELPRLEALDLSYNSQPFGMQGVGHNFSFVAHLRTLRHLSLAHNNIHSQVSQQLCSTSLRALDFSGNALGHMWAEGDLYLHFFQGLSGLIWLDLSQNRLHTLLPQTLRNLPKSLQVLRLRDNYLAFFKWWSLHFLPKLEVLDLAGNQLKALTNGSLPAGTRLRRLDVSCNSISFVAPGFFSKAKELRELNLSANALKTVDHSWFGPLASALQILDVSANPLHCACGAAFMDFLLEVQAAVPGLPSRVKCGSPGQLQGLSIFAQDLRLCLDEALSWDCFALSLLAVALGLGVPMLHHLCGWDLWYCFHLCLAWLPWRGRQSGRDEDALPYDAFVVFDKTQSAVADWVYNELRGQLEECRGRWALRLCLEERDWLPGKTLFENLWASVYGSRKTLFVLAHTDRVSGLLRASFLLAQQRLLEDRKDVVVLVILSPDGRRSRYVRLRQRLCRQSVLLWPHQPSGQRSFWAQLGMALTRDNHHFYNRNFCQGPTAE
- assay-info: TLR9 inhibition reporter assay (HEK-Blue, SEAP)
- condition-parameters: HEK-Blue cells overexpressing human TLR9, ODN2006 5 nM stimulation
measure: IC50 (µM)

compound: Cc1cc(-c2[nH]c3ccc(-c4nnc([C@@H]5CCNC5)o4)cc3c2C(C)C)ccn1
number: 0.523
//
compound: Cc1cc(-c2[nH]c3ccc(-c4ccnc(-c5cn[nH]c5)c4)cc3c2C(C)C)ccn1
number: 12
//
compound: CCc1c(-c2ccnc(C)c2)[nH]c2ccc(-c3noc(CCC4CCNCC4)n3)cc12
number: 1.79
//
compound: Cc1cc(-c2[nH]c3ccc(-c4cnc(N)cn4)cc3c2C(C)C)cc(C)n1
number: 21.1
//
compound: Cc1cc(-c2[nH]c3ccc(-c4ccnc(N5CCN(C)CC5)c4)cc3c2C(C)C)ccn1
number: 0.824
//
compound: CC(C)c1c(-c2ccnc3[nH]ncc23)[nH]c2ccc(-c3nnc(C(=O)NC4CCN(C(C)C)CC4)o3)cc12
number: 0.235

(P) Cc1cc(-c2[nH]c3ccc(-c4nnc([C@@H]5CSCN5)o4)cc3c2C(C)C)ccn1
(Q) CCc1c(-c2ccc(OC)c(OC)c2)[nH]c2ccc(-c3ccc(N4CCNCC4)cc3)cc12
Hi there, can you help? I need to know whether P or Q has lower measured IC50. // output: label of the selected item Q
(Q: 0.721 µM, P: 31.6 µM)

(a) CC(C)c1c(-c2ccnc3n[nH]cc23)[nH]c2ccc(-c3nccs3)cc12
(b) Cc1cc(-c2[nH]c3ccc(-c4nnc([C@@H]5CCCC[C@@H]5N)o4)cc3c2C(C)C)ccn1
Hi there, can you help? I need to know whether a or b has lower measured IC50. // output: label of the selected item b
(b: 0.781 µM, a: 35.1 µM)

(P) CCc1c(-c2ccc(OC)c(OC)c2)[nH]c2ccc(-c3noc([C@@H](N)CCCN)n3)cc12
(Q) Cc1cc(-c2[nH]c3ccc(-c4cc(F)c5nc(C)cn5c4)cc3c2C(C)C)cc(C)n1
(R) COc1ccc(-c2[nH]c3ccc(-c4ccc(CCCN5CCOCC5)cc4)cc3c2C(C)C)cc1OC
(S) Cc1cc(-c2[nH]c3ccc(-c4cn5cc(C)nc5cc4C)cc3c2C(C)C)cc(C)n1
# rank by IC50, ascending (min first) Note for the reader: the ranking is given by listing the labels in the order requested. S, R, P, Q
